# Test target: human SGLT2 (Homo sapiens, UniProt P31639)
# Sequence (P31639 1-672): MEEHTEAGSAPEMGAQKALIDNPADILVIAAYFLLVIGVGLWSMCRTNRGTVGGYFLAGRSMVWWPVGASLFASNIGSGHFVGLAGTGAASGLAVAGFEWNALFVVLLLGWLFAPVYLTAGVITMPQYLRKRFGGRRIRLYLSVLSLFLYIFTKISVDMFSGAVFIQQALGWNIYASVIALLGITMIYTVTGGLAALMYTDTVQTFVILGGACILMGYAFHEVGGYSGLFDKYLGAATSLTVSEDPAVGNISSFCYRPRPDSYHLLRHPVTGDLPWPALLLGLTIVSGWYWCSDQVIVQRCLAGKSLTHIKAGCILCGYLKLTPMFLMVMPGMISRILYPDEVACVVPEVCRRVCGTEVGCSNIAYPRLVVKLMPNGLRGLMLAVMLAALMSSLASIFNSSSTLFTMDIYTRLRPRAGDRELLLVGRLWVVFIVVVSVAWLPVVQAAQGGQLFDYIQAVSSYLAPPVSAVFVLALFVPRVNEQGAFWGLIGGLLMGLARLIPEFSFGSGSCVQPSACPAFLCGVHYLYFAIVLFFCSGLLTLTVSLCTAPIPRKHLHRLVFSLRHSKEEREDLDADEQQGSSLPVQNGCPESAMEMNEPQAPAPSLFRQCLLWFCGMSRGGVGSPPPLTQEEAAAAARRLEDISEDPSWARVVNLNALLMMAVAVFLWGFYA
# Experimental protocol: Assay for inhibitory effects on human SGLT2 activity (uptake of methyl-α-D-glucopyranoside in CS2-5E cells)
# Assay setup: inhibition of 14C-labeled α-MG (1 mM) uptake, CHO-K1 cells stably expressing human SGLT2 (CS2-5E), 37° C., 1 hour
Measure name: pIC50
Give bare numbers, as −log10 of the molar value.

Prompt line: State the recorded pIC50 for this entry: `Cc1cc(C)c(Cc2ccc(C)c(F)c2)c(O[C@@H]2O[C@H](CO)[C@@H](O)[C@H](O)[C@H]2O)n1`
Response line: 8.52
